Hey, just so you know, these numbers are from the Human Domainome abundance scans (Beltran et al. 2025).

B1: Unconventional myosin-Ie, residues 1051 to 1108; numbered along this chain, Q12965 (parent)
chain: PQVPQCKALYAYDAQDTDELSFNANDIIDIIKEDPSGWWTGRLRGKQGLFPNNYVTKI

# Variants of: B1
# testMethodNotes: abundance fitness (aPCA) (normalised: wild type 0, dead -1); higher = more abundant; growth selection in yeast, the domain comes from the species named
# studyConditions: Homo sapiens
Measured abundance fitness accompanies every entry in the list below.

A11L | -0.308
D18C | -0.05
N52Q | -0.197

What value of abundance fitness has been recorded for this entry: `A24W`
-0.481

// returns reported abundance fitness for input `V55Q`
-1.02

Fill blank: measured abundance fitness of the variant `D26N` is ____.
-0.676

// lookup abundance fitness for `D16Y`
-0.093

Need abundance fitness of `D16N` , thanks.
-0.052
